test system: Lung cancer cell NCI-H2228; assay: Growth inhibition of cancer cell lines: NCI-H2228; assay type: cell-based; settings: Homo sapiens
TEST_READOUT: IC50
Form field: result (number plus unit)

Query string: Given the compound C[C@@H](Oc1cc(-c2cnn(C3CCNCC3)c2)cnc1N)c1c(Cl)ccc(F)c1Cl , write its reported IC50.
Result string: 358 nM

###

test system: Lung cancer cell NCI-H3122; assay: Growth inhibition of cancer cell lines: NCI-H3122; format: cell-based; conditions: Homo sapiens
TEST_READOUT: pIC50
Please report pIC50 as the negative decimal logarithm of the molar concentration, giving only the number.

Query string: Given the molecule C[C@@H](Oc1cc(-c2cnn(C3CCNCC3)c2)cnc1N)c1c(Cl)ccc(F)c1Cl , write its reported pIC50.
Result string: 6.67

These entries and their values trace back to paper PMC10310851.
